Test: chemical genetic growth profiling, strain panel (AID 1159580);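 further: tested at 20 µM; growth read once vehicle control cultures reached saturation at 30 °C; 1 = growth at the plate median or of vehicle wells; lower values mean less growth of the strain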
Settings: S. cerevisiae deletion strains, growth OD, locus YLR342W, strain FKS1, hits give low values
Out of some 5,500 compounds screened, about 2,000 (36%) were called active. Another 18% or so got no clear call; they are omitted. The list shows a part of the results.
ATTRIBUTE_MEASURED: normalized growth

COMPOUND	ATTRIBUTE_MEASURED	VALUE_MEASURED
O=c1c(O)c(-c2ccc(O)cc2O)oc2cc(O)cc(O)c12	normalized growth	0.974
CN1C[C@H](C(=O)N[C@]2(C)O[C@@]3(O)[C@@H]4CCCN4C(=O)[C@H](Cc4ccccc4)N3C2=O)C[C@@H]2c3cccc4[nH]cc(c34)C[C@H]21	normalized growth	1.01
CC/C(=C(/CC)c1ccc(O)cc1)c1ccc(O)cc1	normalized growth	1.01
C[C@@H]1O[C@@H](OC[C@H]2OC(Oc3c(-c4ccc(O)c(O)c4)oc4cc(O)cc(O)c4c3=O)[C@H](O)[C@@H](O)[C@@H]2O)[C@H](O)[C@H](O)[C@H]1O (stereo partly drawn)	normalized growth	1.01
O=c1c(O)c(-c2ccc(O)c(O)c2)oc2c(O[C@@H]3O[C@H](CO)[C@H](O)[C@@H](O)[C@H]3O)c(O)cc(O)c12	normalized growth	1.02
C=C1CCC2(OC1)OC1CC3C4CC=C5CC(O)CC(O)C5(C)C4CCC3(C)C1C2C (stereo not drawn)	normalized growth	1.01
O=c1cc(-c2ccc(O)cc2)oc2cc(O[C@@H]3O[C@H](CO)[C@@H](O)[C@H](O)[C@H]3O)cc(O)c12	normalized growth	1.01
CC(=O)OC(C)C[N+](C)(C)C (stereo not drawn)	normalized growth	1
CCC(N)C(O)c1ccc(O)c(O)c1 (stereo not drawn)	normalized growth	0.995
CC1CCC2(OC1)OC1CC3C4CC[C@H]5C[C@@H](O)CC[C@]5(C)C4CC(=O)[C@]3(C)C1C2C (stereo partly drawn)	normalized growth	1
NC(=NCCC[C@H](N)C(=O)O)N[N+](=O)[O-]	normalized growth	1.02
OC1CC2CCCC(C1)N2Cc1ccccc1 (stereo not drawn)	normalized growth	0.995
C[C@@H]1CC[C@@]2(OC1)O[C@H]1CC3C4CC[C@H]5C[C@@H](O)CC[C@]5(C)C4CC[C@]3(C)[C@H]1[C@@H]2C (stereo partly drawn)	normalized growth	0.976
